test system: NCI-H929 complex spheroids, viability % test/control; assay: Anticancer human tumor NCI-H929 cell line growth inhibition [RAS]; conditions: second compound 0.03 µM; first compound 3.16 µM; stronger effect = lower value;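 note: compound exposure lasted seven days before viability was read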
Mark Y only for viability, T/C values smaller than 20%; exact matches and larger values are N.

- compound: "NC1c2ccccc2OC12CCN(c1cnc3c(N4CCCc5ncccc54)n[nH]c3n1)CC2 (stereo not drawn) + CCn1c(-c2cc(N3CCN(C)CC3)cnc2C(C)OC)c2c3cc(ccc31)-c1csc(n1)CC(NC(=O)C1CC1C)C(=O)N1CCCC(N1)C(=O)OCC(C)(C)C2"
  test.target: "NCI-H929 complex spheroids, viability % test/control"
  discrete.label: "Y"
- compound: "C[C@@H](NC(=O)c1ncnc(N)c1Cl)c1ncc(C(=O)Nc2cc(C(F)(F)F)c(Cl)cn2)s1 + CCn1c(-c2cccnc2C(C)OC)c2c3cc(ccc31)N1CCOC(CC(NC(=O)C(C(C)C)N(C)C(=O)C3(F)CCN(C(=O)C#CC(C)(C)N(C)C)CC3)C(=O)N3CCCC(N3)C(=O)OCC(C)(C)C2)C1"
  test.target: "NCI-H929 complex spheroids, viability % test/control"
  discrete.label: "N"
- compound: "CC(C)NCC(C(=O)N1CCN(c2ncnc3c2C(C)CC3O)CC1)c1ccc(Cl)cc1 (stereo not drawn) + CCn1c(-c2cccnc2C(C)OC)c2c3cc(ccc31)N1CCOC(CC(NC(=O)C(C(C)C)N(C)C(=O)C3(F)CCN(C(=O)C#CC(C)(C)N(C)C)CC3)C(=O)N3CCCC(N3)C(=O)OCC(C)(C)C2)C1"
  test.target: "NCI-H929 complex spheroids, viability % test/control"
  discrete.label: "Y"
- compound: "CC(Nc1ccc2c(c1)OCCn1cc(N3C(=O)OCC3C(F)F)nc1-2)C(N)=O (stereo not drawn) + CCn1c(-c2cc(N3CCN(C)CC3)cnc2C(C)OC)c2c3cc(ccc31)-c1csc(n1)CC(NC(=O)C1CC1C)C(=O)N1CCCC(N1)C(=O)OCC(C)(C)C2"
  test.target: "NCI-H929 complex spheroids, viability % test/control"
  discrete.label: "Y"
- compound: "C[C@@H](NC(=O)c1ncnc(N)c1Cl)c1ncc(C(=O)Nc2cc(C(F)(F)F)c(Cl)cn2)s1 + CCn1c(-c2cc(N3CCN(C)CC3)cnc2C(C)OC)c2c3cc(ccc31)-c1csc(n1)CC(NC(=O)C1CC1C)C(=O)N1CCCC(N1)C(=O)OCC(C)(C)C2"
  test.target: "NCI-H929 complex spheroids, viability % test/control"
  discrete.label: "N"
- compound: "CC1(O)CCCC1n1c(=O)c(C(F)F)cc2cnc(NC3CCN(S(C)(=O)=O)CC3)nc21 (stereo not drawn) + CCn1c(-c2cc(N3CCN(C)CC3)cnc2C(C)OC)c2c3cc(ccc31)-c1csc(n1)CC(NC(=O)C1CC1C)C(=O)N1CCCC(N1)C(=O)OCC(C)(C)C2"
  test.target: "NCI-H929 complex spheroids, viability % test/control"
  discrete.label: "Y"
- compound: "CC(Nc1ccc2c(c1)OCCn1cc(N3C(=O)OCC3C(F)F)nc1-2)C(N)=O (stereo not drawn) + CCn1c(-c2cccnc2C(C)OC)c2c3cc(ccc31)N1CCOC(CC(NC(=O)C(C(C)C)N(C)C(=O)C3(F)CCN(C(=O)C#CC(C)(C)N(C)C)CC3)C(=O)N3CCCC(N3)C(=O)OCC(C)(C)C2)C1"
  test.target: "NCI-H929 complex spheroids, viability % test/control"
  discrete.label: "N"

Now take the following compound into account.
Query: Please indicate whether the reported viability, T/C of CC1(O)CCCC1n1c(=O)c(C(F)F)cc2cnc(NC3CCN(S(C)(=O)=O)CC3)nc21 (stereo not drawn) + CCn1c(-c2cccnc2C(C)OC)c2c3cc(ccc31)N1CCOC(CC(NC(=O)C(C(C)C)N(C)C(=O)C3(F)CCN(C(=O)C#CC(C)(C)N(C)C)CC3)C(=O)N3CCCC(N3)C(=O)OCC(C)(C)C2)C1 is strictly below 20%.
Reply: Y
